Give combination Emax for every item shown.
- Tested on: Mewo (Melanoma)
- Test Name: combination Emax (second highest fraction inhibited in the dose matrix, 72 h); higher = more inhibition; extreme values may be limits of the assay

Compound	combination Emax
CN(CCO)CC[C@H](CSc1ccccc1)Nc1ccc(S(=O)(=O)NC(=O)c2ccc(N3CCC([C@@H](O)c4ccccc4-c4ccc(Cl)cc4)CC3)cc2)cc1S(=O)(=O)C(F)(F)F [AZD4320] + CN(C)CCCOc1ccc(-c2ccc3ncc4c(c3c2)n(C2CCOCC2)c(=O)n4C)cn1 [AZD0156] (first compound max 1 µM, 7x7, partner max 1 µM)	0.147

Respectfully, I request combination Emax for each entry included below.
1. COc1cccc(OCCCN)c1-c1cc(Nc2cnc(C#N)cn2)n[nH]1 [Prexasertib] + CCc1c2c(nc3ccc(O)cc13)-c1cc3c(c(=O)n1C2)COC(=O)[C@]3(O)CC [SN-38] (first compound max 1 µM, 7x7, partner max 0.3 µM)
2. NC1(C(=O)N[C@@H](CCO)c2ccc(Cl)cc2)CCN(c2ncnc3[nH]ccc23)CC1 [Capivasertib] + COc1nnc2ccc(N3CCC(c4ccc(OCCN5CCN(C)C(=O)[C@H]5C)cc4)CC3)nn12 [AZD5153] (first compound max 10 µM, 7x7, partner max 1 µM)
3. Cc1cc2ncnn2cc1Nc1ncc2c(n1)n(C1CCOCC1)c(=O)n2C [AZD7648] + O=C(c1cc(Cc2n[nH]c(=O)c3ccccc23)ccc1F)N1CCN(C(=O)C2CC2)CC1 [Olaparib] (first compound max 10 µM, 7x7, partner max 10 µM)

Marked response:
[0.721, 0.433, 0.138]

###

- Tested on: HDLM-2 (Hodgkin's Lymphoma)
- Test Name: combination Emax (second highest fraction inhibited in the dose matrix, 72 h); higher = more inhibition; extreme values may be limits of the assay
Can you tell me combination Emax for the items I'm about to list?
One number for each entry.

Examples from the recorded data:
Molecule	Result Value
Cc1cc2ncnn2cc1Nc1ncc2c(n1)n(C1CCOCC1)c(=O)n2C [AZD7648] + C=CCn1c(=O)c2cnc(Nc3ccc(N4CCN(C)CC4)cc3)nc2n1-c1cccc(C(C)(C)O)n1 [AZD1775] (first compound max 10 µM, partner max 1 µM)	0.585
CC(=O)c1c(C)c2cnc(Nc3ccc(N4CCNCC4)cn3)nc2n(C2CCCC2)c1=O [Palbociclib] + Cn1cnc2c(F)c(Nc3ccc(Br)cc3Cl)c(C(=O)NOCCO)cc21 [Selumetinib] (first compound max 10 µM, 7x7, partner max 10 µM)	0.335

Proceeding to the next molecule to report its combination Emax.
Exam item: Need combination Emax of NC1(C(=O)N[C@@H](CCO)c2ccc(Cl)cc2)CCN(c2ncnc3[nH]ccc23)CC1 [Capivasertib] + CCN(CCO)CCCOc1ccc2c(Nc3cc(CC(=O)Nc4cccc(F)c4)[nH]n3)ncnc2c1 [AZD2811] (first compound max 10 µM, 7x7, partner max 1 µM) , thanks.
Marked response: 0.395

###

- Test system: HARA (Squamous Cell Lung Carcinoma)
- Test Name: combination Emax (second highest fraction inhibited in the dose matrix, 72 h); higher = more inhibition; extreme values may be limits of the assay
Threshold rule: combination Emax greater than or equal to 0.8 is true; below that, false.

Exam item: Does the reported combination Emax for CCc1c2c(nc3ccc(O)cc13)-c1cc3c(c(=O)n1C2)COC(=O)[C@]3(O)CC [SN-38] + O=C(c1cc(Cc2n[nH]c(=O)c3ccccc23)ccc1F)N1CCN(C(=O)C2CC2)CC1 [Olaparib] (first compound max 0.3 µM, 7x7, partner max 10 µM) fall at or above the 0.8 mark?
Marked response: true

Exam item: Given Cc1cc2ncnn2cc1Nc1ncc2c(n1)n(C1CCOCC1)c(=O)n2C [AZD7648] + CN(C)CCCOc1ccc(-c2ccc3ncc4c(c3c2)n(C2CCOCC2)c(=O)n4C)cn1 [AZD0156] (first compound max 10 µM, 7x7, partner max 1 µM) , state whether its combination Emax is at least 0.8.
Marked response: false

Exam item: Check if combination Emax >= 0.8 (inclusive). Item: COc1nnc2ccc(N3CCC(c4ccc(OCCN5CCN(C)C(=O)[C@H]5C)cc4)CC3)nn12 [AZD5153] + CC1(C)CCC(CN2CCN(c3ccc(C(=O)NS(=O)(=O)c4ccc(NCC5CCOCC5)c([N+](=O)[O-])c4)c(Oc4cnc5[nH]ccc5c4)c3)CC2)=C(c2ccc(Cl)cc2)C1 [Venetoclax] (first compound max 1 µM, 7x7, partner max 1 µM)
Marked response: false

Exam item: Dear colleague, could you confirm whether C[C@@H]1COCCN1c1cc(C2([S@](C)(=N)=O)CC2)nc(-c2ccnc3[nH]ccc23)n1 [AZD6738] + C1CC(C1)(C(=O)[O-])C(=O)[O-].N.N.[Pt+2] [Carboplatin] (first compound max 10 µM, 7x7, partner max 10 µM) has combination Emax at or above 0.8?
Marked response: true

Exam item: Quick check, combination Emax >= 0.8? Cc1cc2ncnn2cc1Nc1ncc2c(n1)n(C1CCOCC1)c(=O)n2C [AZD7648] + O=C(c1cc(Cc2n[nH]c(=O)c3ccccc23)ccc1F)N1CCN(C(=O)C2CC2)CC1 [Olaparib] (first compound max 10 µM, 7x7, partner max 10 µM)
Marked response: false
